- subject of test: αVβ3 (Homo sapiens, UniProt P05106+P06756)
- Sequence (P06756 31-992 limits assumed): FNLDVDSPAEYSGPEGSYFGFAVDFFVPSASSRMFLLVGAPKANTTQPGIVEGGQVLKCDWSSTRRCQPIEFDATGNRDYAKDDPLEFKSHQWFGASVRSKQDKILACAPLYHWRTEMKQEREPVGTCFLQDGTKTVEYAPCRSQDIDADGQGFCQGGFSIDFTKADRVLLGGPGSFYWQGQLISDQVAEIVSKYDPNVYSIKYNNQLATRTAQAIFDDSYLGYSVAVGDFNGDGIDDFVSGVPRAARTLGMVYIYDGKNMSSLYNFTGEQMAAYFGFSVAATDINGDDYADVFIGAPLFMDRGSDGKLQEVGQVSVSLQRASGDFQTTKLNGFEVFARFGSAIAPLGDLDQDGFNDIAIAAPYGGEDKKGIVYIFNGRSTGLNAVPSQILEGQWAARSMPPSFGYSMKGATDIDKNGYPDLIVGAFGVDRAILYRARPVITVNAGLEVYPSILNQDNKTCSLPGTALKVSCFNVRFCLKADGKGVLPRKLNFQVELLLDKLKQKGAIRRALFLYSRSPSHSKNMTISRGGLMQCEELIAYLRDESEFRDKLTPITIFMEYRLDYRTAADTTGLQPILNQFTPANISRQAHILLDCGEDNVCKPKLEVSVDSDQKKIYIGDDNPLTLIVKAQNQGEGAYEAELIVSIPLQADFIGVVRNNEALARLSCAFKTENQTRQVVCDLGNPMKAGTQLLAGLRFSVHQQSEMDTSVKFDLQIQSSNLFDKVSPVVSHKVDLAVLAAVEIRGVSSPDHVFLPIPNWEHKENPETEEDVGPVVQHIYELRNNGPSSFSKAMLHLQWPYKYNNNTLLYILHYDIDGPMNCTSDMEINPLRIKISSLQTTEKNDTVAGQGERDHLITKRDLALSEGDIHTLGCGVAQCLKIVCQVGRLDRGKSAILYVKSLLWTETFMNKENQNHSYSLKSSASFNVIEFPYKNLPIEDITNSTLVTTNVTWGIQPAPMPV
- Sequence (P05106 27-718 limits assumed): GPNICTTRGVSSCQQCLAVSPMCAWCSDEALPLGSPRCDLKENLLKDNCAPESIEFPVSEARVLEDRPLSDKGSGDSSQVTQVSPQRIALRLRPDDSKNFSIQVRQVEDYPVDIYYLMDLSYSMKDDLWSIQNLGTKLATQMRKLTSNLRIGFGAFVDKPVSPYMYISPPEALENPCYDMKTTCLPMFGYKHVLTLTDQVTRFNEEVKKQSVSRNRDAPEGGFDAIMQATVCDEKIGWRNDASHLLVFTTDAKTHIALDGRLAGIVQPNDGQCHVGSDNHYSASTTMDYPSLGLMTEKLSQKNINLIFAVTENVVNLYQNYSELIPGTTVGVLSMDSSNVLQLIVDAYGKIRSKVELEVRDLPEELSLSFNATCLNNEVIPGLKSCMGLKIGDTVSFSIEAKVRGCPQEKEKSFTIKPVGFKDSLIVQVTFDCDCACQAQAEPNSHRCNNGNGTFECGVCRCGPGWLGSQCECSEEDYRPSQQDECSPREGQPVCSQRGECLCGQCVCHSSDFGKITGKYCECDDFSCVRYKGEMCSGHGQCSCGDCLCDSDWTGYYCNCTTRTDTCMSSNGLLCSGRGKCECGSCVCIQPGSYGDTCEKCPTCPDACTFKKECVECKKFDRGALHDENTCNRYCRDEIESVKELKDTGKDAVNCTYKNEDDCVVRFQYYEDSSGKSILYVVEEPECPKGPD
- method description: Human αVβ3 solid phase assay (fibrinogen binding to coated αVβ3)
- experimental conditions: αVβ3 coated plates, fibrinogen as ligand
pIC50: −log10 of the molar value.
measurement name: pIC50

- compound: "COc1ccc(NC(=O)[C@H](CC(=O)O)NC(=O)CNC(=O)c2cccc(N=C(N)N)c2)cc1 [compound 141]"
  subject of test: "αVβ3 (Homo sapiens, UniProt P05106+P06756)"
  reported: "~8.70"

From: patent US9586916B2
